# key: entry, value: koff
assayed system: T1, human α-CGRP 1-37 (WT) (human, C-terminal amide; N-terminal biotin when captured on the SA chip; 125I-labelled in the radioligand assay)
T1 construct: also called α-human
T1 peptide: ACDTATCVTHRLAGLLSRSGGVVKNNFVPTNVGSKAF
experimental details: Biacore, 37°C, Fab over CGRP on SA chip
Numbers only here, please. The scale is s⁻¹.

[
  {
    "binder": "G1 variant M79 Fab (Fab, V domains shown, Fab; constant domains as m1) VH: EVQLVESGGGLVQPGGSLRLSCAASGFTFSNYWISWVRQAPGKGLEWVAEIRSKSDPSATHYAEAVKGRFTISRDNAKNSLYLQMNSLRAEDTAVYYCTVYFDYGLAIQNYWGQGTLVTVSS VL: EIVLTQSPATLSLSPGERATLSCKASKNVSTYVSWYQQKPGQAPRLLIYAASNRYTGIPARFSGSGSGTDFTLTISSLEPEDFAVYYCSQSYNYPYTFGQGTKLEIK",
    "koff, s⁻¹": 0.00129
  },
  {
    "binder": "G1 variant M6 Fab (Fab, V domains shown, Fab; constant domains as m1) VH: EVQLVESGGGLVQPGGSLRLSCAASGFTFSNYWISWVRQAPGKGLEWVAEIRSESDASATHYAEAVKGRFTISRDNAKNSLYLQMNSLRAEDTAVYYCNAYFDYGLAIQNYWGQGTLVTVSS VL: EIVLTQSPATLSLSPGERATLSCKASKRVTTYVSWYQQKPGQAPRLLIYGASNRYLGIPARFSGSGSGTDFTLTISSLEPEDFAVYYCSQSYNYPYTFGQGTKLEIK",
    "koff, s⁻¹": 0.000133
  }
]

Lab note: next binder to report on.
Entry G1 variant M7 Fab (Fab, V domains shown, Fab; constant domains as m1) VH: EVQLVESGGGLVQPGGSLRLSCAASGFTFSNYWISWVRQAPGKGLEWVAEIRSESDASATHYAEAVKGRFTISRDNAKNSLYLQMNSLRAEDTAVYYCNCYFDYGLAIQNYWGQGTLVTVSS VL: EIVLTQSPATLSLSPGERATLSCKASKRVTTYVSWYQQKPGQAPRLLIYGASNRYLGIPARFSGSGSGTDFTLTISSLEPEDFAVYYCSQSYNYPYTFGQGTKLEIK has what koff? 0.000243
